# System: SNB-75
# method: NCI tumour cell line growth inhibition, 48 h
Activity calls are given as the source filed them. Cut-off read from the data, not from the text of the source: active = GI50 up to about 1.1 µM and inactive = higher.
Field: GI50. Provide a value for each of the compounds that follow.

Please fill in: GI50 reported for COc1ccc(NC(=S)N/N=C/c2c(C)n(C)n(-c3ccccc3)c2=O)cc1 = 28 µM (inactive)

Please fill in: GI50 reported for CC1=NN(c2cccc(Cl)c2)C2(C1)SCC(=O)N2c1nc2ccccc2s1 (centres undefined) = 13.2 µM (inactive)

Please fill in: GI50 reported for Cc1cc(C2(c3cc(C)c(O)c(C(=O)O)c3)OS(=O)(=O)c3ccccc32)cc(C(=O)O)c1O = > 100 µM (inactive)

Please fill in: GI50 reported for CC1=CC(=O)CC(C)(C)C1(O)/C=C/C(C)=C/C(=O)O (centres undefined) = > 100 µM (inactive)
